Recorded measurements of Plant response rating, Barnyardgrass, one per entry
# Test system: barnyardgrass (Echinochloa crus-galli)
# Test summary: Test A preemergence, barnyardgrass
# Assay type: in vivo
# Measurement conditions: 500 g ai/ha, 0 to 100 scale (0 no effect, 100 complete control)
Property label: Plant response rating, Barnyardgrass

# Compound, Subject of test, Result
records = [
    ("O=C1NCC(c2cccc(COc3ccccc3)c2)C1C(=O)Nc1ccccc1Cl (stereo not shown) [Compound 18]", "barnyardgrass (Echinochloa crus-galli)", 0),
    ("O=C1NCC(c2cccc(OCC3OCCO3)c2)C1C(=O)Nc1cccc(F)c1F (stereo not shown) [Compound 7]", "barnyardgrass (Echinochloa crus-galli)", 90),
    ("O=C1NCC(c2cccc(OCc3ccco3)c2)C1C(=O)Nc1ccccc1C(F)(F)F (stereo not shown) [Compound 2]", "barnyardgrass (Echinochloa crus-galli)", 30),
    ("CN1CC(c2cccc(Oc3ccc(C(F)(F)F)cn3)c2)C(C(=O)Nc2ccccc2F)C1=O (single isomer, unassigned) [Compound 43]", "barnyardgrass (Echinochloa crus-galli)", 80),
    ("O=C1NCC(c2cccc(Oc3ccc(F)cn3)c2)C1C(=O)Nc1ccccc1F (single isomer, unassigned) [Compound 49]", "barnyardgrass (Echinochloa crus-galli)", 90),
    ("O=C1NCC(c2cccc(Cn3cccn3)c2)C1C(=O)Nc1ccc(F)cc1F (stereo not shown) [Compound 28]", "barnyardgrass (Echinochloa crus-galli)", 30),
    ("O=C1NCC(c2cccc(Oc3ccccn3)c2)C1C(=O)Nc1cccc(F)c1F (stereo not shown) [Compound 68]", "barnyardgrass (Echinochloa crus-galli)", 50),
]
